B1: Segment polarity protein dishevelled homolog DVL-3, residues 2 to 81; numbered along this chain, Q92997 (parent)
chain: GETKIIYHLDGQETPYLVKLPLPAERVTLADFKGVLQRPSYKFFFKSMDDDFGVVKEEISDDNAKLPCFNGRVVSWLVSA

# Variants of: B1
# measurementNotes: abundance fitness (aPCA) (normalised: wild type 0, dead -1); higher = more abundant; growth selection in yeast, the domain comes from the species named
# appliedConditions: Homo sapiens
Each entry gets NO if its abundance fitness stays under -0.1, and YES if its abundance fitness is -0.1 or above.

Recorded results for 8 variants are shown here.
>  <variantAnnotation>
E25G

>  <classLabel>
YES

$$$$
>  <variantAnnotation>
V78C

>  <classLabel>
NO

$$$$
>  <variantAnnotation>
K56H

>  <classLabel>
NO

$$$$
>  <variantAnnotation>
K42A

>  <classLabel>
NO

$$$$
>  <variantAnnotation>
P39T

>  <classLabel>
YES

$$$$
>  <variantAnnotation>
F44L

>  <classLabel>
NO

$$$$
>  <variantAnnotation>
F45I

>  <classLabel>
NO

$$$$
>  <variantAnnotation>
D61A

>  <classLabel>
NO

$$$$

Textbook exercise: given the entry `L66D` , state whether its abundance fitness is greater than or equal to -0.1.
NO

Similarly, `D61T` ?
NO

Similarly, `I59E` ?
NO

Similarly, `W76Y` ?
NO

Similarly, `E58M` ?
NO

Similarly, `E57H` ?
NO
